The origin of these recorded values is patent US5475032A.

test: adriamycin acute lethality and its prevention by pretreatment, DBA/2J mice (Example 13); conditions: mouse, in vivo, ip
Property measured: LD50 (mg/kg)
Numbers only, in mg/kg.

Per the record, COc1cccc2c1C(=O)c1c(O)c3c(c(O)c1C2=O)C[C@@](O)(C(=O)CO)C[C@@H]3O[C@H]1C[C@H](N)[C@H](O)[C@H](C)O1 has LD50 of 25
